Assign pIC50 to each entry below.
- TGT: Nonstructural protein 3 (Zika virus)
- PROTOCOL_DETAILS: Functional biochemical assay to identify treatments for viral infectious disease that targets Zika NS2B-NS3 protease. Utilizing a direct enzyme activity measurement method, reading the fluorescence intensity is used to characterize the relative potency of inhibitors as IC50.
- Set-up: species or system PRVABC59
// scale note: pIC50 = -log10(conc_M); give the bare number

Exercise: # get_value(readout= pIC50, system= Nonstructural protein 3 (Zika virus)) for `CN(C(=O)c1cc(Cl)cc2[nH]ncc12)c1ccc2c(c1)CNC2`
Key: 4.10

Exercise: # get_value(readout= pIC50, system= Nonstructural protein 3 (Zika virus)) for `NCc1cccc(NC(=O)[C@H](NC(=O)OCc2ccccc2)c2ccc(OCc3ccccc3)cc2)c1`
Key: 5.16

====

Assign IC50 to each entry below.
- TGT: Nonstructural protein 3 (Zika virus, UniProt A0A024AXB9)
- Sequence (A0A024AXB9 whole entry): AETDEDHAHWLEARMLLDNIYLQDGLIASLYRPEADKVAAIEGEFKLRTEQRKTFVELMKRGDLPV
- PROTOCOL_DETAILS: Functional biochemical assay to identify treatments for viral infectious disease that targets Zika NS2B-NS3 protease. Utilizing a direct enzyme activity measurement method, reading the fluorescence intensity is used to characterize the relative potency of inhibitors as IC50.
- Design: species or system PRVABC59

Exercise: Which IC50 value is on record for `N#Cc1cccc(C[C@H](O)c2cc(Cl)cc(NC(=O)OCc3ccccc3)c2)c1` ?
Key: > 99.5 µM

Exercise: Which IC50 value is on record for `Clc1cc(CNc2ccc3c(c2)[C@@H]2CC[C@H]3N2)c2cn[nH]c2c1` ?
Key: > 25 µM

Exercise: Which IC50 value is on record for `NCc1ccc([C@H]2C[C@@H]2c2cc(Cl)cc(NC(=O)OCc3ccccc3)c2)cc1` ?
Key: 5.12 µM

Exercise: Which IC50 value is on record for `CCC(C)(C)C(=O)N[C@H](C(=O)Nc1cccc(CN)c1)c1ccc(OCc2ccccc2)cc1` ?
Key: > 99.5 µM

Exercise: Which IC50 value is on record for `NCc1cccc(NC(=O)c2cc(Cl)ccc2Oc2cccc(Cl)c2)c1` ?
Key: 61.7 µM

Exercise: Which IC50 value is on record for `CN(C)Cc1ccc(N2CCN(Cc3c[nH]c4ccccc34)CC2)nc1` ?
Key: > 99.5 µM

Exercise: Which IC50 value is on record for `O=Cc1ccc(N2CCC(C(=O)N3CCN(c4ccc([N+](=O)[O-])cc4C(F)(F)F)CC3)CC2)cc1` ?
Key: > 0.782 µM

Exercise: Which IC50 value is on record for `O=C(O)c1cc(Cl)ccc1S(=O)(=O)Nc1nn(Cc2ccccc2)cc1Cl` ?
Key: > 99.5 µM

Exercise: Which IC50 value is on record for `Cn1nccc1CN1CCC(NS(=O)(=O)c2ccc(Cl)cc2C(=O)O)CC1` ?
Key: > 99.5 µM

Exercise: Which IC50 value is on record for `CCn1c(=O)c(N2CC[C@H](c3nccn3C)C2)nc2ccccc21` ?
Key: > 99.5 µM

Exercise: Which IC50 value is on record for `O=C(O)c1cc(Cl)ccc1S(=O)(=O)Nc1ccc(N2CCCCC2)c(Cl)c1` ?
Key: > 99.5 µM

Exercise: Which IC50 value is on record for `CCc1cc(NC(=O)OCc2ccccc2)cc(C(=O)Nc2cccc(CN)c2)c1` ?
Key: 39.8 µM

Exercise: Which IC50 value is on record for `COc1cc(N[C@@H](C(=O)N2CCc3ccc(OC(F)(F)F)cc32)c2ccc(Cl)cc2)cc(OCCCC(=O)O)c1` ?
Key: 20.4 µM

Exercise: Which IC50 value is on record for `Cc1cccc(CNc2ccc(Cl)cc2C(=O)Nc2cccc(CN)c2)n1` ?
Key: > 99.5 µM

Exercise: Which IC50 value is on record for `NCc1cccc(NC(=O)[C@@H](NC(=O)OCc2ccccc2)C2CCN(C(=O)c3cscn3)CC2)c1` ?
Key: > 99.5 µM

Exercise: Which IC50 value is on record for `NCc1ccc(-c2ncc(OCC3CCNCC3)nc2-c2ccc(-c3ccoc3)cc2)cc1` ?
Key: > 99.5 µM

Exercise: Which IC50 value is on record for `O=C(O)c1cc(Cl)c(F)cc1NS(=O)(=O)c1ccc(Oc2ccccc2)cc1` ?
Key: 30.3 µM

Exercise: Which IC50 value is on record for `O=C(Nc1ccc2c(c1)CNC2)c1c(Br)cc(Cl)c2[nH]ncc12` ?
Key: 9.14 µM

Exercise: Which IC50 value is on record for `O=C(Nc1ccc2c(c1)CNC2)N1CCC[C@H]1c1cc(C(F)(F)F)no1` ?
Key: > 25 µM

Exercise: Which IC50 value is on record for `Cc1cc(Cl)cc(C(=O)Nc2cccc(CN)c2)n1` ?
Key: > 99.5 µM

Exercise: Which IC50 value is on record for `O=C(N[C@@H](C(=O)NCc1cn[nH]c1)c1ccc(OCc2ccccc2)cc1)OCc1ccccc1` ?
Key: > 99.5 µM

Exercise: Which IC50 value is on record for `Cn1cc(C(=O)N[C@@H](C(=O)Nc2cccc(CN)c2)c2ccc(OCc3ccccc3)cc2)cn1` ?
Key: > 99.5 µM

Exercise: Which IC50 value is on record for `O=C1NCc2c1cccc2C(=O)Nc1ccc2c(c1)CNC2` ?
Key: 6.43 µM

Exercise: Which IC50 value is on record for `O=C(Nc1cc(Cl)cc(-c2cnn3ccc(C(=O)O)cc23)c1)OCc1ccccc1` ?
Key: > 99.5 µM

Exercise: Which IC50 value is on record for `NCc1cccc(NC(=O)[C@H](NS(=O)(=O)C[C@H]2COCCO2)c2ccc(OCc3ccccc3)cc2)c1` ?
Key: > 99.5 µM

Exercise: Which IC50 value is on record for `c1ccc2c(CN3CCC(n4cccn4)CC3)c[nH]c2c1` ?
Key: > 99.5 µM

Exercise: Which IC50 value is on record for `Cc1occ(C(F)(F)F)c1C(=O)N[C@H](C(=O)Nc1cccc(CN)c1)c1ccc(OCc2ccccc2)cc1` ?
Key: 61 µM

Exercise: Which IC50 value is on record for `Brc1cnn(C2CCN(Cc3csnn3)CC2)c1` ?
Key: > 99.5 µM

Exercise: Which IC50 value is on record for `CNC(=O)[C@H](Nc1ccc2c(c1)CNC2)c1cccc2[nH]c(C(F)(F)F)nc12` ?
Key: 3.42 µM

Exercise: Which IC50 value is on record for `O=C(Nc1ccc2c(c1)CNC2)c1cccc(-c2cnco2)c1` ?
Key: 1.83 µM

Exercise: Which IC50 value is on record for `Nc1nccc(C(=O)Nc2ccc3c(c2)CNC3)n1` ?
Key: 46.9 µM

Exercise: Which IC50 value is on record for `COc1ccc([C@@H](CC(=O)Nc2cccc(CN)c2)NC(=O)OCc2ccccc2)cc1Br` ?
Key: 93.9 µM

Exercise: Which IC50 value is on record for `NCc1cccc(NC(=O)[C@@H](NC(=O)OCc2ccccc2)C2CCN(C3CCOCC3)CC2)c1` ?
Key: > 99.5 µM

Exercise: Which IC50 value is on record for `O=C1Cc2c(cccc2C(=O)N[C@H]2CCc3cnccc32)N1` ?
Key: > 25 µM

Exercise: Which IC50 value is on record for `CS(=O)(=O)Nc1cccc(C(=O)Nc2ccc3c(c2)CNC3)c1` ?
Key: 12.8 µM

Exercise: Which IC50 value is on record for `CCn1c(=O)c(N2CCC[C@H]2c2ncccn2)nc2ccccc21` ?
Key: > 99.5 µM

Exercise: Which IC50 value is on record for `Cn1cc(NC(=O)c2cc(Cl)cc(NC(=O)OCc3ccccc3)c2)cn1` ?
Key: > 99.5 µM

Exercise: Which IC50 value is on record for `O=C(N[C@H](C(=O)NCc1cccc(CO)n1)c1ccc(OCc2ccccc2)cc1)OCc1ccccc1` ?
Key: > 99.5 µM

Exercise: Which IC50 value is on record for `O=C(Nc1cccc(-n2nn[nH]c2=O)c1)c1cc(Cl)cc2c1CCC2` ?
Key: > 99.5 µM

Exercise: Which IC50 value is on record for `NCc1cccc(NC(=O)c2cc(C3CC3)n3nc(C(F)(F)F)cc3n2)c1` ?
Key: > 99.5 µM

Exercise: Which IC50 value is on record for `Cc1cc(C#N)cc2c(Cc3ccc(-c4nnn[nH]4)cc3)c[nH]c12` ?
Key: > 99.5 µM
